Test system: E18 rat cortical neuron-glia co-culture;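 further: MBP fiber length per Olig2+ nucleus over MBP area × intensity per Olig2+ nucleus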
protocol-summary: fiber score / MBP score (myelination specific beyond OL differentiation) (ratio); higher = more myelination-specific MBP alignment
measurement-setup: 1 µM; treatment time: 8 days (DIV5-DIV13)
Binary call on fiber score / MBP score: T from 0.8 upward, F beneath that.

>  <molecule>
OC(CCN1CCCC1)(c1ccccc1)C1CCCCC1 (configuration not stated)

>  <cat>
T

$$$$
>  <molecule>
COC(=O)C1=C(C)NC(C)=C(C(=O)OC)C1c1ccccc1[N+](=O)[O-]

>  <cat>
F

$$$$
>  <molecule>
C=C(CC)C(=O)c1ccc(OCC(=O)O)c(Cl)c1Cl

>  <cat>
T

$$$$
>  <molecule>
CC(=O)OCC(=O)[C@@]12OC(C)(C)O[C@@H]1C[C@H]1[C@@H]3C[C@H](F)C4=CC(=O)C=C[C@]4(C)[C@@]3(F)[C@@H](O)C[C@@]12C [Fluocinonide]

>  <cat>
T

$$$$
>  <molecule>
Nc1nc(N)nc(-c2cc(Cl)ccc2Cl)n1

>  <cat>
T

$$$$
>  <molecule>
CCCCC(=O)N(Cc1ccc(-c2ccccc2-c2nnn[nH]2)cc1)[C@H](C(=O)O)C(C)C

>  <cat>
T

$$$$
>  <molecule>
CO[C@H]1/C=C/O[C@@]2(C)Oc3c(C)c(O)c4c(c3C2=O)C2=NC3(CCN(CC(C)C)CC3)NC2=C(NC(=O)/C(C)=C\C=C\[C@H](C)[C@H](O)[C@@H](C)[C@@H](O)[C@@H](C)[C@H](OC(C)=O)[C@@H]1C)C4=O

>  <cat>
T

$$$$
>  <molecule>
CN1CCN(CC/C=C2/c3ccccc3Sc3ccc(S(=O)(=O)N(C)C)cc32)CC1

>  <cat>
T

$$$$
>  <molecule>
Cc1cccc(CN2CCN(C(c3ccccc3)c3ccc(Cl)cc3)CC2)c1 (configuration not stated)

>  <cat>
F

$$$$
>  <molecule>
CC(=O)OCC(=O)NCCCOc1cccc(CN2CCCCC2)c1 [Roxatidine acetate]

>  <cat>
F

$$$$
>  <molecule>
OC(CCN1CCCCC1)(c1ccccc1)C1CCCCC1 (configuration not stated)

>  <cat>
F

$$$$
>  <molecule>
CC(C)c1ccc2c(c1)c(SC(C)(C)C)c(CC(C)(C)C(=O)O)n2Cc1ccc(Cl)cc1

>  <cat>
T

$$$$
>  <molecule>
Cc1ccc(C)c(OCCCC(C)(C)C(=O)O)c1

>  <cat>
F

$$$$
>  <molecule>
CCN(CC)CCOC(=O)c1ccc(N)cc1

>  <cat>
T

$$$$
